The origin of these recorded values is patent US20050124620A1.

Assayed Target: UniProt Q16539
Sequence (Q16539 whole entry): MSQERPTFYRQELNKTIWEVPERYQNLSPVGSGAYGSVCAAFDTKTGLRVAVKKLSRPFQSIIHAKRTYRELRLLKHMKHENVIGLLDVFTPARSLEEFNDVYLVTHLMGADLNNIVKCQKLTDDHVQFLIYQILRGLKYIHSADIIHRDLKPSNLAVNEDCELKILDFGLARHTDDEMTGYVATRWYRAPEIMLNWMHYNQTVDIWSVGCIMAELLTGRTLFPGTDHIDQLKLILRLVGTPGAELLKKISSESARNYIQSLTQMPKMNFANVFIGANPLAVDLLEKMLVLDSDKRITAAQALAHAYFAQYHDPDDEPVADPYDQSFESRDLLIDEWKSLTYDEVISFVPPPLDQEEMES
Method Summary: p38 MAP kinase inhibitory activity (33P-ATP / myelin basic protein filter assay)
Format: biochemical
Condition Parameters: MKK6-activated α p38, MBP substrate, 50 min reaction
Observable: IC50 (µM)
Just the number in µM, nothing appended.

Cc1cccc2c(CCc3ccncc3)c[nH]c12	35
Cc1[nH]c2ccccc2c1CCc1ccncc1	270
O=C(Nc1ccc2[nH]cc(CCc3ccncc3)c2c1)c1cccc(C(F)(F)F)c1 [Example 17B]	4
Nc1ccc2ccn(CCc3ccncc3)c2c1 [Example 25A, 6-Amino-1-(2-(4-pyridyl)ethyl)indole]	475
C[C@H](Nc1nccc(CCc2c[nH]c3ccccc23)n1)c1ccccc1	3
CC(C)(CO)Nc1nccc(CCc2c[nH]c3ccccc23)n1	1.5
c1ccc(CCc2c[nH]c3ccccc23)nc1	820
O=C(Nc1ccc2[nH]cc(CCc3ccncc3)c2c1)c1cccc(OC(F)(F)F)c1 [Example 16B]	2

query: Name the recorded IC50 for Fc1cccc2[nH]cc(CCc3ccncc3)c12 .
result: 45

query: Query Cn1cc(CCc2ccncc2)c2ccccc21 next
result: 240

query: Note, next up: c1ccc2c(c1)ccn2CCc1ccncc1
result: 200

query: Param item: O=C(Nc1ccc2c(ccn2CCc2ccncc2)c1)c1cc(F)cc(N2CCOCC2)c1 [Example 18B]
result: 3

query: And the next one, O=C(Nc1ccc2[nH]cc(CCc3ccncc3)c2c1)c1ccnc(N2CCOCC2)c1 [Example 23B] ?
result: 1.3

query: Same question, O=C(Nc1ccccc1)Nc1ccc2[nH]cc(CCc3ccncc3)c2c1 [Example 20B] this time
result: 28

query: And what about the compound c1ccc2c(CCc3ccncc3)c[nH]c2c1 ?
result: 33

query: Request: C[C@@H](Nc1nccc(CCc2c[nH]c3ccccc23)n1)c1ccccc1
result: 15

query: And then Cc1ccc2[nH]cc(CCc3ccncc3)c2c1 , what is it?
result: 250

query: Try this compound too: Clc1ccc2[nH]cc(CCc3ccncc3)c2c1
result: 122

query: What do you have for OCCNc1nccc(CCc2c[nH]c3ccccc23)n1 ?
result: 38

query: What do you have for O=C(Nc1ccc2[nH]cc(CCc3ccncc3)c2c1)c1ccccc1 [Example 13B] ?
result: 40

query: And then c1ccc2c(CCc3ccncn3)c[nH]c2c1 , what is it?
result: 715
